Assay: yeast display, Sf9 membrane polyspecificity reagent, FACS + sequencing; frameworks hold sequencing errors

[
  {
    "SEQUENCE": "QVQLVESGGGLVQVGGSLRLSCAASGFTFYDYAMGWYRQAPGKERELVAAMSRGGSTYYADSVKGRFTISRDNAKNTVYLQMNSLKPEDTAVYYCNARPTRIYHGMGYWGQGTQVTVSW",
    "polyreactivity (PSR sort gate)": "low polyreactivity"
  },
  {
    "SEQUENCE": "QVQLVESGGGLVQAGCRLRLSCAASGITFYSYAMGWYRQAPGKERELVAAITLTGGTTYYADSVKGRFTISRDNAKNTVYLQMNSLKPEDTAVSYCAAQYWWWSRFEYDSWGQGTQVTVSS",
    "polyreactivity (PSR sort gate)": "low polyreactivity"
  },
  {
    "SEQUENCE": "QVQLVESGGGLVQAGGSLRLSCAASGSTFLFYAMGWYRQAPGKEREFVDAISWSGGSTFYADSVKGRFTISRYNAKNTVYLQMNSLKPEDTAVYYCAARQDGYSGRKLYYLGQGTQVTVSS",
    "polyreactivity (PSR sort gate)": "low polyreactivity"
  }
]

* * *

Assay: yeast display, Sf9 membrane polyspecificity reagent, FACS + sequencing; frameworks hold sequencing errors

[
  {
    "SEQUENCE": "QVHLVESGGGLVQAGGSLRLSCAASGRTFDDYAMGWYRQAPGKERELVAAISSSGGSTYYADSVKGRFTISRDNAKNTVYLQMNSLKPEDTAVYYCAADYDWGYWYDYWGQGTQVTVSS",
    "polyreactivity (PSR sort gate)": "low polyreactivity"
  },
  {
    "SEQUENCE": "QVQLVESGGGLVQAGGSLRLSCAASGYTIESYTMGWYREAPGKEREFVAVISSSDTSTSYADSVKGRFTISRDNAKNTVYLQMNSLKPEDTAFYYCAAYSSPYYITYYWYNYDYWGQGTQVTVSS",
    "polyreactivity (PSR sort gate)": "low polyreactivity"
  },
  {
    "SEQUENCE": "QVQLVESGGGLVQAGGSLRLSCAASGSTFRSNVMGWYRQAPGKERELVAAITSSGGSTYYADSVKGRFTISRDNAKNTVYLQMNSLKPEDTAVYYCAVDYYYGFDWGQGTQVTVSS",
    "polyreactivity (PSR sort gate)": "low polyreactivity"
  }
]

* * *

Experiment: yeast display, Sf9 membrane polyspecificity reagent, FACS + sequencing; frameworks hold sequencing errors

[
  {
    "SEQUENCE": "QVQLVESGGGLVQAGGSLRLSCAASGRIFYNNAMGWYRQAPGKERELVAAIDWPGGSTDYADSVKGRFTISRDNAKNTVYLQMNSLKPEDTAVYYCVAGHVPYWHGNSYDYWGQGTQVTVSS",
    "polyreactivity (PSR sort gate)": "low polyreactivity"
  },
  {
    "SEQUENCE": "QVQLVESGGGLVQAGGSLRLSCAASGSIFGIYVMGWYRQAPGKERELVAGISTRGGSTYYADSVKGRFTISRDNAKNTVYLQMNSLKPEDTAVYYCAAVPASYRYPMYYWGQGTQVNVSS",
    "polyreactivity (PSR sort gate)": "low polyreactivity"
  },
  {
    "SEQUENCE": "QVQLVESGGGLVQAGGSLRLSSAASGFIFRTYAMGRYRQAHGKESQLVAAISGTTGSKYYADSVKGRFTISRDNAKNTVYLQMNSLKPEDTAVYYCAADFYWYIRYDYWGQGTQVTVSS",
    "polyreactivity (PSR sort gate)": "low polyreactivity"
  }
]
